Source listed as PubChem BioAssay (NCI).

System: RPMI-8226 leukemia
Assay: NCI-60 one-dose screen, 48 h
Details: 10 µM
This is part of a sample that, as a whole, favours compounds with a hit. Of some 83,000 tested, about 20% had one in any assay. Calls of active or inactive are those of the source. Rule for the calls: active = growth percent below 10; inactive = the rest.
Classes to choose from: active, inactive

Field: example entries. Status: answers known.
Cc1nc2nc(C(F)(F)F)[nH]c2nc1C
inactive
CC(C)(C)[Si](C)(C)OC1[C@@H](CNC(=O)NC(=O)CCl)O[C@@H](n2cnc3c(N)ncnc32)[C@H]1O[Si](C)(C)C(C)(C)C (stereo partly specified)
active
O=C1C(Br)=C(c2ccccc2)C(=O)C(Br)=C1c1ccccc1
inactive
C[C@H]1C(=O)C23CCC1C[C@@]21O[C@@H]2C(C)(C)C=CC(=O)C23COC1=O
inactive
Cc1nc2cc(Nc3nc(N4CCOCC4)nc(N4CCN(C)CC4)n3)ccc2n1Cc1ccccc1
inactive

Lookup: Which result was noted for this compound in the test: CCSc1nnc2c3cc(Br)ccc3n(C)c2n1
Found: inactive

Lookup: What call does the record list for CC(C)(C)[Si](C)(C)OC1[C@@H](COC(=O)NC(=O)CCl)O[C@@H](n2cnc3c(N)ncnc32)[C@H]1O[Si](C)(C)C(C)(C)C (stereo partly specified) ?
Found: active

Lookup: I'd appreciate the recorded outcome for O=C(N/N=C/c1ccc2c(c1)OCO2)c1cnn2c1NC(c1ccccc1)C2 (stereo unspecified) from this test.
Found: inactive

Lookup: Identify the outcome logged in this assay for the compound shown: Cc1nc(-c2ccccc2)cc2c(O)c(C(=O)N/N=C/Cc3ccccc3)[nH]c(=O)c12
Found: inactive

Lookup: Please share the test call associated with O=C(COc1ccc(/C=C2\CSc3ccccc3C2=O)cc1)c1ccc(Cl)cc1 .
Found: inactive

Lookup: Please indicate how the test categorized COc1ccc(CSc2nc3cc(OC)c(OC)cc3c(=O)n2-c2ccc(Cl)cc2)cc1 .
Found: inactive

Lookup: Lab log entry: O=C1C(Cl)=C(NCCCN2CCOCC2)C(=O)c2ccccc21 — outcome as called in the assay?
Found: inactive

====

Test system: NCI/ADR-RES ovarian
Experiment: NCI-60 one-dose screen, 48 h
Details: 10 µM unless noted
This is part of a sample that, as a whole, favours compounds with a hit. Of some 83,000 tested, about 20% had one in any assay. Active and inactive are the calls of the source. Rule for the calls: active = growth percent below 10; inactive = the rest.
Pick one: active, inactive

COc1ccc(/C=C2\SC(=O)N(CN3CCN(c4cc5c(cc4F)c(=O)c(C(=O)O)cn5C4CC4)CC3)C2=O)cc1
inactive
O=C(N/N=C/c1ccc2c(c1)OCO2)c1cnn2c1NC(c1ccccc1)C2 (configuration not stated)
inactive
COc1cc(/C=C2\C(=O)N(c3c(Cl)cccc3Cl)c3ccccc32)cc(OC)c1O
inactive
O=C1N/C(=C\c2ccccc2)c2ncccc21
inactive
CCCCCCCCCCCCCCCC[N+]1(C)CCOCC1
inactive
COc1cc(C(=O)/C=C/c2c(-c3cccs3)nc3sccn23)cc(OC)c1OC
active

Continue with the next compound.
Lookup: Dear all, I need the recorded test outcome for O=C(O)CCN1CCN(c2cccc(Cl)c2)CC1 , thank you.
Found: inactive

====

System: SK-MEL-28 melanoma
Assay: NCI-60 one-dose screen, 48 h
Details: 10 µM unless noted
Compounds without any hit were thinned out: in the full panel of roughly 83,000, 20% have a hit. Activity calls are given as the source filed them. How the source made its calls: active means growth percent below 10; inactive means the rest.
Choose one outcome from this list and give only that: 1.0 (active), 0.0 (inactive)

Previously resolved entries follow.
COc1ccc(-c2[nH]ncc2Nc2cc(OC)c(OC)c(OC)c2)cc1
0.0
NC(=S)N/N=C1\c2ccccc2-c2c(F)c(F)c(F)c(F)c21
0.0
c1ccc(-c2n(Cc3ccc4ccccc4c3)c3ccccc3[n+]2Cc2ccc3ccccc3c2)cc1
1.0
COc1cccc(C2CC(=O)Nc3cc4c(cc32)CCC4)c1OC (stereo unspecified)
0.0
COc1ccc(C2=NOC(CC(=O)N(CCO)CCO)C2)cc1OC1CCCC1 (stereo unspecified)
0.0
CS(=O)(=O)Nc1cccc(C(=O)NCc2ccc(N3CCOCC3)cc2)c1
0.0
C[C@@H](Oc1cc(-c2cnn(C3CC4(CNC4)C3)c2)cnc1N)c1c(Cl)ccc(F)c1Cl
0.0
N#CCCN1CCN(CCC#N)C1=S
0.0

Lookup: Dear colleague, could you share the recorded outcome for Cc1ccc(-c2nnc(COc3ccc(-c4nnc(N)s4)cc3)o2)cc1 when you have a moment?
Found: 0.0

Lookup: Lab log entry: O=[N+]([O-])c1cc2c(cc1Br)-c1ccccc1C2 — outcome as called in the assay?
Found: 0.0

Lookup: Hello, I am checking results. What call was entered for CCCCCCCC/C=C\CCCCCCCCOc1cccc(CC(=O)NCC[N+]2(C)CCCCC2)c1 ?
Found: 0.0

Lookup: What was the test verdict on O=C(COc1cccc(/C=C2\COc3ccccc3C2=O)c1)c1ccccc1 ?
Found: 0.0

Lookup: Which outcome was entered for the compound N#C/C(=C\c1ccc[nH]1)c1cc2ccccc2[nH]1 in this test?
Found: 0.0

Lookup: How did this test come out for COC(=O)c1c2c(c(C)[n+]([O-])c1C)C(=O)C=C(NCc1cccc(Cl)c1)C2=O ?
Found: 1.0

Lookup: Tell me the assay call for CN1CCN(CCCn2c3c(sc4ncccc43)c(=O)n3nnc(-c4ccccc4)c23)CC1 please.
Found: 0.0

Lookup: # outcome recorded in this test, key = COc1ccc(-c2nc3sccn3c2/C=C/C(=O)c2cc(OC)c(OC)c(OC)c2)cc1OC
Found: 0.0

Lookup: I'd appreciate the recorded outcome for CC(C)(C)[Si](C)(C)OC1[C@@H](COC(N)=O)O[C@@H](n2cnc3c(N)ncnc32)[C@H]1O[Si](C)(C)C(C)(C)C (stereo partly specified) from this test.
Found: 0.0

Lookup: Check the results log: what was the call for CSc1nnc(-c2sc3nnc(-c4ccccc4)c(-c4ccccc4)c3c2O)o1 ?
Found: 0.0

Lookup: Can you look up the reported call for CCCCC/C=C\C/C=C/CCCCCCCCNC(=O)Nc1ccc([N+](=O)[O-])cc1 for me?
Found: 0.0

Lookup: Assay outcome for COc1cc(OCc2cccc(-c3ccc(C(O)c4nccs4)cc3)c2C)cc(OC)c1C=O (stereo unspecified) : what was it?
Found: 0.0

Lookup: So what was the verdict on Cc1ccc(C2SCC(=O)N2NC(=O)c2[nH]c3ccc(F)cc3c2-c2ccccc2)cc1 (stereo unspecified) in this test?
Found: 0.0

====

Test system: RXF 393 renal
Experiment: NCI-60 one-dose screen, 48 h
Details: 10 µM unless noted
Compounds without any hit were thinned out: in the full panel of roughly 83,000, 20% have a hit. Active and inactive are the calls of the source. How the source made its calls: active means growth percent below 10; inactive means the rest.
Answer with one of the outcomes given here: 1 = active, -1 = inactive

These recorded examples may help you get a feel for the data.
COc1cc(C2=NN(c3ccc(S(N)(=O)=O)cc3)C(c3ccc(Cl)cc3)C2)cc(OC)c1OC (stereo unspecified)
-1
CCN(CC)c1ccc(/C=C(\C#N)c2cc3ccccc3[nH]2)cc1
-1
O=C(NCc1ccco1)C1CCN(S(=O)(=O)c2ccc(Cl)cc2)CC1
-1
O=C1OCC2=C1C(c1ccc3c(c1)OCO3)CC(=O)N2c1cccc(Cl)c1 (stereo unspecified)
-1
COc1ccc(C2CC(c3cc(OC)c(OC)c(OC)c3)=NN2c2ccc(S(N)(=O)=O)cc2)cc1 (stereo unspecified)
-1
NC(=O)c1nc2c([nH]c1=O)CCCC2
-1
COc1nc2c(cc1S(=O)(=O)c1ccccc1)CCc1c-2cnn1-c1ccccc1
-1
Cc1nc(NN)c([N+](=O)[O-])c(NN)n1
-1
Clc1ccc(Nc2ccnc(N3CCN(c4ccnc5cc(Cl)ccc45)CC3)n2)cc1
-1
CSc1ccc(OC(C)=O)cc1C
-1

Lookup: What call does the record list for COc1ccc(C2OCC(C)(C)CO2)cc1OC ?
Found: -1

Lookup: Assay outcome for O=C1/C(=C/c2ccc(Cl)cc2)N=C(c2ccccc2)N1CCc1cccs1 : what was it?
Found: -1

Lookup: Recorded test outcome, item Cc1nc2cc(Nc3nc(Cl)nc(Nc4ccc(F)cc4)n3)ccc2n1Cc1ccccc1
Found: -1

Lookup: Assay outcome for COc1cc2nc(SCc3cc(OC)c(OC)c(OC)c3)n(-c3ccccc3OC)c(=O)c2cc1OC : what was it?
Found: -1

Lookup: Test call for this compound, please: O=C(CC(O)c1ccccc1)Nc1ccccn1 (stereo unspecified)
Found: -1

Lookup: Hello, I am checking results. What call was entered for COc1ccc(/C=N/OCC(O)CNCc2ccccc2)cc1OC1CCCC1 (stereo unspecified) ?
Found: -1

Lookup: // param item: CCOc1ccc(/C=N\N2CCCCCC2)cc1OCC ; yields the recorded call
Found: -1

Lookup: Test call for this compound, please: CCOc1ccc(-c2cnnn2-c2nonc2-n2cccc2)cc1
Found: 1

====

System: MCF7 breast
Assay: NCI-60 one-dose screen, 48 h
Settings: 10 µM unless noted
Compounds without any hit were thinned out: in the full panel of roughly 83,000, 20% have a hit. Active and inactive are the calls of the source. How the source made its calls: active means growth percent below 10; inactive means the rest.
Your answer must be one of the following: YES (active), NO (inactive)

Lookup: What did the test return for O=C(NCc1cccnc1)c1ccc([N+](=O)[O-])o1 ?
Found: NO

Lookup: Outcome logged for COc1cccc2c(=O)c3c(sc12)c(NCCN(C)C)nc1ccccc13 in this assay:
Found: YES
